Activity overview
Biological target: Lutropin-choriogonadotropic hormone receptor (Homo sapiens, UniProt P22888)
Sequence (P22888 whole entry): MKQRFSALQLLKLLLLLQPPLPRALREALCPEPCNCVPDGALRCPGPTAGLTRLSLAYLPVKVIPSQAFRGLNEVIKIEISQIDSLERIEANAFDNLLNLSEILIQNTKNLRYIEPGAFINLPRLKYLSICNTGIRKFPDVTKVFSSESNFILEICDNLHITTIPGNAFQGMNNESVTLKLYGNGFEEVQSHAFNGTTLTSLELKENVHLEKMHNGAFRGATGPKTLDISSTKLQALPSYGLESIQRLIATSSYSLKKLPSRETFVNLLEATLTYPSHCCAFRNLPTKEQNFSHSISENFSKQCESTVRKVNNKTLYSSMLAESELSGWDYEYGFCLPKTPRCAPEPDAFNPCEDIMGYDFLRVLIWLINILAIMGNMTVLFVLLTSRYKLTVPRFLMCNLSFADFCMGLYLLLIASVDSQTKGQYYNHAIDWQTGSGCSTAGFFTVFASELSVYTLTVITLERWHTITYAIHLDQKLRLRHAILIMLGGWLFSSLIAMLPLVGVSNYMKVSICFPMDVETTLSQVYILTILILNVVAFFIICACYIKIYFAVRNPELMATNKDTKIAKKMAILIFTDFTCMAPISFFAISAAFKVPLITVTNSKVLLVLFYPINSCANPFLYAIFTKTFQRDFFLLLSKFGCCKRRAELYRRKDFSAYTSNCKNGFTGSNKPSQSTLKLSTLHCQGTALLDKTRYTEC
Assay: Displacement of [3H]Org43553 from human luteinizing hormone receptor expressed in CHOK1 cells at 10 uM by scintillation spectrometry
Format: cell-based
Conditions: CHO-K1

# count of solved cases: 3
{"sample.smiles": "O=C(NC1CCCC1)Oc1cc(-c2ccccc2)cc(-c2ccccc2)c1", "parameter.measured": "Activity", "observed.measurement": "91%"}
{"sample.smiles": "O=C(Oc1cc(-c2ccccc2)cc(-c2ccccc2)c1)C1CCCC1", "parameter.measured": "Activity", "observed.measurement": "9%"}
{"sample.smiles": "CCCCNC(=O)Oc1cc(-c2ccccc2)cc(-c2ccccc2)c1", "parameter.measured": "Activity", "observed.measurement": "61%"}

Then there is this compound:
Item under review: `COc1ccc(-c2cc(OC(=O)NC3CCCC3)cc(-c3ccc(OC)cc3)c2)cc1` . Reported Activity? 17%

* * *

Biological target: Lutropin-choriogonadotropic hormone receptor (Homo sapiens)
Test: Agonist activity at human luteinizing hormone receptor expressed in CHOK1 cells assessed as c-AMP-mediated luciferase production
Type: functional, cell-based, CHO-K1
parameter.measured: pEC50
Value format note: pEC50 is -log10 of concentration (mol/L); just state the number.

Notebook: pull reported pEC50 for Lutropin-choriogonadotropic hormone receptor (Homo sapiens), entry `O=C(NC1CCCC1)Oc1cc(-c2ccccc2)cc(-c2ccccc2)c1` 5.80

* * *

Target: Lutropin-choriogonadotropic hormone receptor (Homo sapiens)
Test: Displacement of [3H]Org43553 from human luteinizing hormone receptor expressed in CHOK1 cells
parameter.measured: IC50 (µM)
Please give a number only; it is taken to be in µM.

Item under review: `O=C(NC1CCCC1)Oc1cc(-c2ccccc2)cc(-c2ccccc2)c1` . Reported IC50? 2.3

* * *

Molecular target: Lutropin-choriogonadotropic hormone receptor (Homo sapiens)
Assay: Displacement of [3H]Org43553 from human luteinizing hormone receptor expressed in CHOK1 cells assessed as increase in radioligand dissociation at 10 uM by scintillation spectrometry relative to control
Format: cell-based
Conditions: CHO-K1
// assign 1 (yes) if Activity falls strictly below 40%, else 0 (no) (ties count as 0 (no))

Given the entry `Nc1cc(-c2ccccc2)cc(-c2ccccc2)c1` , would its reported Activity be below 40%? 0 (no)

Given the entry `CCCNC(=O)Oc1cc(-c2ccccc2)cc(-c2ccccc2)c1` , would its reported Activity be below 40%? 0 (no)

Given the entry `COc1ccc(-c2cc(OC(=O)NC3CCCC3)cc(-c3ccc(OC)cc3)c2)cc1` , would its reported Activity be below 40%? 1 (yes)

Given the entry `O=C(Nc1cc(-c2ccccc2)cc(-c2ccccc2)c1)C1CCCC1` , would its reported Activity be below 40%? 0 (no)

Given the entry `COc1ccc(NC(=O)Oc2cc(-c3ccccc3)cc(-c3ccccc3)c2)cc1` , would its reported Activity be below 40%? 1 (yes)

Given the entry `O=C(Nc1ccccc1)Oc1cc(-c2ccccc2)cc(-c2ccccc2)c1` , would its reported Activity be below 40%? 0 (no)

Given the entry `CCCCCNC(=O)Oc1cc(-c2ccccc2)cc(-c2ccccc2)c1` , would its reported Activity be below 40%? 0 (no)

* * *

Biological target: Lutropin-choriogonadotropic hormone receptor (Homo sapiens, UniProt P22888)
Test: Displacement of [3H]Org43553 from human luteinizing hormone receptor expressed in CHOK1 cells at 10 uM by scintillation spectrometry
Assay type: cell-based
Settings: CHO-K1
Activity overview
Please give a number only; it is taken to be in %.

# count of solved cases: 2
{"sample.smiles": "Nc1cc(-c2ccccc2)cc(-c2ccccc2)c1", "observed.measurement": 9}
{"sample.smiles": "CCNC(=O)Oc1cc(-c2ccccc2)cc(-c2ccccc2)c1", "observed.measurement": -1}

Item under review: `O=C(Nc1ccc(Cl)cc1)Oc1cc(-c2ccccc2)cc(-c2ccccc2)c1` . Reported Activity? 9

* * *

Molecular target: Lutropin-choriogonadotropic hormone receptor (Homo sapiens, UniProt P22888)
Experiment: Displacement of [3H]Org43553 from human luteinizing hormone receptor expressed in CHOK1 cells assessed as increase in radioligand dissociation at 10 uM by scintillation spectrometry relative to control
Format: cell-based
Details: CHO-K1
True means recorded Activity is 60% or above; False means it is below 60%.

Kindly determine if Activity recorded for `O=C(NC1CCCC1)Oc1cc(-c2ccccc2)cc(-c2ccc(Cl)c(Cl)c2)c1` is above or exactly 60%. True

Kindly determine if Activity recorded for `Cc1ccc(-c2cc(OC(=O)NC3CCCC3)cc(-c3ccccc3)c2)cc1` is above or exactly 60%. True

Kindly determine if Activity recorded for `COc1ccc(C(=O)Nc2nc(-c3ccccc3)cc(-c3ccccc3)n2)cc1` is above or exactly 60%. False

Kindly determine if Activity recorded for `COc1ccc(-c2cc(OC(=O)NC3CCCC3)cc(-c3ccccc3)c2)cc1` is above or exactly 60%. True

Kindly determine if Activity recorded for `O=C(NC1CCCC1)Oc1cc(-c2ccccc2)cc(-c2ccc(Cl)cc2)c1` is above or exactly 60%. True

Kindly determine if Activity recorded for `O=C(NC1CCCC1)Oc1cccc(-c2ccccc2)c1` is above or exactly 60%. True

* * *

Target: Lutropin-choriogonadotropic hormone receptor (Homo sapiens)
Assay: Displacement of [3H]Org43553 from human luteinizing hormone receptor expressed in CHOK1 cells at 10 uM by scintillation spectrometry
Type: cell-based
Details: CHO-K1
Each entry falls into one class according to its Activity; the ranges are A: < 30%; B: ≥ 30% and < 70%; C: ≥ 70%

Answered cases to consult:
{"sample.smiles": "O=C(NC1CCCC1)Oc1cc(-c2ccccc2)cc(-c2ccc(Cl)cc2)c1", "measured.on": "Lutropin-choriogonadotropic hormone receptor (Homo sapiens)", "category": "C"}
{"sample.smiles": "O=C(NC1CCCC1)Oc1cc(-c2ccc(Cl)c(Cl)c2)cc(-c2ccc(Cl)c(Cl)c2)c1", "measured.on": "Lutropin-choriogonadotropic hormone receptor (Homo sapiens)", "category": "A"}
{"sample.smiles": "O=C(Nc1ccccc1)Oc1cc(-c2ccccc2)cc(-c2ccccc2)c1", "measured.on": "Lutropin-choriogonadotropic hormone receptor (Homo sapiens)", "category": "A"}
{"sample.smiles": "O=C(Nc1cc(-c2ccccc2)cc(-c2ccccc2)c1)NC1CCCC1", "measured.on": "Lutropin-choriogonadotropic hormone receptor (Homo sapiens)", "category": "B"}
{"sample.smiles": "O=C(NC1CCCCC1)Oc1cc(-c2ccccc2)cc(-c2ccccc2)c1", "measured.on": "Lutropin-choriogonadotropic hormone receptor (Homo sapiens)", "category": "C"}
{"sample.smiles": "COc1ccc(-c2cc(OC(=O)NC3CCCC3)cc(-c3ccccc3)c2)cc1", "measured.on": "Lutropin-choriogonadotropic hormone receptor (Homo sapiens)", "category": "B"}

Classify this compound: `Cc1ccc(-c2cc(OC(=O)NC3CCCC3)cc(-c3ccc(C)cc3)c2)cc1` B

Classify this compound: `O=C(NC1CCCC1)Oc1cccc(-c2ccccc2)c1` C

Classify this compound: `CCCNC(=O)Oc1cc(-c2ccccc2)cc(-c2ccccc2)c1` B

* * *

Biological target: UniProt:P22888
Assay: Displacement of [3H]Org43553 from human luteinizing hormone receptor expressed in CHOK1 cells assessed as increase in radioligand dissociation at 10 uM by scintillation spectrometry relative to control
Type: cell-based
Conditions: CHO-K1
parameter.measured: Activity (%)
Please give a number only; it is taken to be in %.

# count of solved cases: 3
{"sample.smiles": "O=C(Oc1cc(-c2ccccc2)cc(-c2ccccc2)c1)C1CCCC1", "parameter.measured": "Activity", "observed.measurement": 41}
{"sample.smiles": "Oc1cc(-c2ccccc2)cc(-c2ccccc2)c1", "parameter.measured": "Activity", "observed.measurement": 27}
{"sample.smiles": "CC(C)NC(=O)Oc1cc(-c2ccccc2)cc(-c2ccccc2)c1", "parameter.measured": "Activity", "observed.measurement": 55}

Then there is this compound:
Item under review: `CCCCNC(=O)Oc1cc(-c2ccccc2)cc(-c2ccccc2)c1` . Reported Activity? 65

* * *

Target: Lutropin-choriogonadotropic hormone receptor (Homo sapiens, UniProt P22888)
Assay: Displacement of [3H]Org43553 from human luteinizing hormone receptor expressed in CHOK1 cells assessed as increase in radioligand dissociation at 10 uM by scintillation spectrometry relative to control
Type: cell-based
Conditions: CHO-K1
Condition met means recorded Activity is 60% or above; Condition not met means it is below 60%.

Answered cases to consult:
{"sample.smiles": "O=C(Nc1ccc(Cl)cc1)Oc1cc(-c2ccccc2)cc(-c2ccccc2)c1", "measured.on": "Lutropin-choriogonadotropic hormone receptor (Homo sapiens, UniProt P22888)", "category": "Condition not met"}
{"sample.smiles": "O=C(NC1CCCCC1)Oc1cc(-c2ccccc2)cc(-c2ccccc2)c1", "measured.on": "Lutropin-choriogonadotropic hormone receptor (Homo sapiens, UniProt P22888)", "category": "Condition not met"}
{"sample.smiles": "N#Cc1c(N)cc(-c2ccccc2)cc1-c1cccs1", "measured.on": "Lutropin-choriogonadotropic hormone receptor (Homo sapiens, UniProt P22888)", "category": "Condition not met"}
{"sample.smiles": "c1ccc(Cn2cnc3c(-c4ccccc4)cc(-c4ccccc4)nc32)cc1", "measured.on": "Lutropin-choriogonadotropic hormone receptor (Homo sapiens, UniProt P22888)", "category": "Condition not met"}
{"sample.smiles": "O=C(NC1CCCC1)Oc1cc(-c2ccccc2)cc(-c2ccccc2)c1", "measured.on": "Lutropin-choriogonadotropic hormone receptor (Homo sapiens, UniProt P22888)", "category": "Condition met"}

Kindly determine if Activity recorded for `O=C(Nc1cc(-c2ccccc2)cc(-c2ccccc2)c1)NC1CCCC1` is above or exactly 60%. Condition met

Kindly determine if Activity recorded for `CC(C)(C)NC(=O)Oc1cc(-c2ccccc2)cc(-c2ccccc2)c1` is above or exactly 60%. Condition met
